assay.overview: Plasma protein binding (equilibrium dialysis), human
Type: in vitro ADME
experimental.conditions: summary of Table 1, read-out: free fraction
Reported fraction unbound at […] is given for each of the following compounds.

>  <sample.smiles>
COc1cc(Cn2nnc3c2CCc2c(-c4cn(C)nc4C(F)(F)F)cc(Cn4ccnc4C)cc2-3)cc(OC)c1

>  <fraction unbound at […]>
~0.02

$$$$

# context switch: different compound, same fraction unbound at […]
Form field: reported fraction unbound at […] of COc1cc(Cn2nnc3c2CCc2c-3cc(Cn3ccnc3C)cc2C2CC2)ccc1F
~0.02

###

target.desc: WDR5 (Homo sapiens)
assay.overview: WDR5 live cell CETSA in intact L0 CSCs (melting curve, isothermal Kd, washout)
experimental.conditions: L0 CSCs, 2-hour pretreatment, isothermal 70°C
property.label: Kd (nM)
# number only, unit nM dropped from output

So what's the measured Kd for this one? COc1cc(Cn2nnc3c2CCc2c(-c4cn(C)nc4C(F)(F)F)cc(Cn4ccnc4C)cc2-3)cc(OC)c1
2

###

Entries and their measured Papp B→A at 120 min, 5 μM follow.
target.desc: P-glycoprotein (MDR1) (Homo sapiens)
Construct: host or cells: MDR1-MDCK cell monolayers
assay.overview: MDR1-MDCK permeability and efflux
Format: in vitro ADME
experimental.conditions: dog, MDCK-MDR1, pH 7.4, 5 μM, 120 minutes; read-out: Papp B-to-A, R2
Report as a plain number; the unit ×10⁻⁶ cm/s is understood.

>  <compound>
COc1cc(CN2CCc3c(cc(Cn4ccn(C)c4=N)cc3-c3ccc(F)cc3C)C2=O)cc(OC)c1 [C16, reference compound]

>  <Papp B→A at 120 min, 5 μM, ×10⁻⁶ cm/s>
1.91

$$$$

# context switch: different compound, same Papp B→A at 120 min, 5 μM
Which Papp B→A at 120 min, 5 μM value belongs to COc1cc(Cn2nnc3c2CCc2c-3cc(Cn3ccnc3C)cc2C2CC2)ccc1F ?
46.3

###

Measured Pred CLhep (r), listed per entry for reference.
assay.overview: Microsomal intrinsic clearance, rat
Assay type: in vitro ADME
experimental.conditions: scaled predicted hepatic clearance, rat
// units = mL/min/kg; emit number, no label

Here's what some known entries look like.
>  <sample.smiles>
COc1cc(Cn2nnc3c2CCc2c(-c4ccc(F)cc4C)cc(Cn4ccn(C)c4=N)cc2-3)cc(OC)c1

>  <Pred CLhep (r) / mL/min/kg>
18.4

$$$$
>  <sample.smiles>
COc1cc(Cn2nnc3c2CCc2c-3cc(Cn3ccnc3C)cc2C2CC2)ccc1F

>  <Pred CLhep (r) / mL/min/kg>
64.1

$$$$

Quick check: Pred CLhep (r) of COc1cc(Cn2nnc3c2CCc2c(-c4cn(C)nc4C(F)(F)F)cc(Cn4ccnc4C)cc2-3)cc(OC)c1 ?
63.1

###

# maps each entry to its Pred CLhep (h)
assay.overview: Microsomal intrinsic clearance, human
Format: in vitro ADME
experimental.conditions: scaled predicted hepatic clearance, human
All answers are understood in L/h/kg, so give the number only.

Below: 3 compounds and their reported Pred CLhep (h).
>  <compound>
COc1cc(Cn2nnc3c2CCc2c(-c4cn(C)nc4C(F)(F)F)cc(Cn4ccnc4C)cc2-3)cc(OC)c1 [C3TD078]

>  <recorded.number>
1.24

$$$$
>  <compound>
COc1cc(CN2CCc3c(cc(Cn4ccn(C)c4=N)cc3-c3ccc(F)cc3C)C2=O)cc(OC)c1 [C16, reference compound]

>  <recorded.number>
1.1

$$$$
>  <compound>
COc1cc(Cn2nnc3c2CCc2c(-c4ccc(F)cc4C)cc(Cn4ccn(C)c4=N)cc2-3)cc(OC)c1 [C16-TZ]

>  <recorded.number>
1.14

$$$$

What Pred CLhep (h) value was documented for this compound, COc1cc(Cn2nnc3c2CCc2c-3cc(Cn3ccnc3C)cc2C2CC2)ccc1F [C3TD343] ?
1.22

###

target.desc: P-glycoprotein (MDR1) (Homo sapiens)
Construct: host or cells: MDR1-MDCK cell monolayers
assay.overview: MDR1-MDCK permeability and efflux
Assay type: in vitro ADME
experimental.conditions: dog, MDCK-MDR1, pH 7.4, 5 μM, 120 minutes; read-out: Recovery, A-to-B
property.label: recovery at 120 min, 5 μM (%)
Write down the numeric answer in % and omit the unit.

>  <molecule>
COc1cc(Cn2nnc3c2CCc2c-3cc(Cn3ccnc3C)cc2C2CC2)ccc1F [C3TD343]

>  <target.desc>
P-glycoprotein (MDR1) (Homo sapiens)

>  <recovery at 120 min, 5 μM, %>
71.2

$$$$

Let us examine a further case.
Need recovery at 120 min, 5 μM of COc1cc(CN2CCc3c(cc(Cn4ccn(C)c4=N)cc3-c3ccc(F)cc3C)C2=O)cc(OC)c1 [C16, reference compound] , thanks.
85.6

###

System: RPS24, PYGL, CKMT1, SALL2, NID2, PYGB, RPL14 transcripts
assay.overview: RT-qPCR of WDR5-target genes in patient-derived CSCs (L0, L1, L2, DI318, 3832)
Format: cell-based, human
experimental.conditions: Homo sapiens; L0 and DI318, 5 genes, 72 hours; read-out: average IC50 of transcriptional downregulation (qPCR)
property.label: IC50 (nM)
# value in nM; strip the unit string

Look at this compound and give its reported IC50. COc1cc(Cn2nnc3c2CCc2c(-c4cn(C)nc4C(F)(F)F)cc(Cn4ccnc4C)cc2-3)cc(OC)c1
80

###

target.desc: P-glycoprotein (MDR1) (Homo sapiens, UniProt P08183)
Construct: host or cells: MDR1-MDCK cell monolayers
Sequence (P08183 whole entry): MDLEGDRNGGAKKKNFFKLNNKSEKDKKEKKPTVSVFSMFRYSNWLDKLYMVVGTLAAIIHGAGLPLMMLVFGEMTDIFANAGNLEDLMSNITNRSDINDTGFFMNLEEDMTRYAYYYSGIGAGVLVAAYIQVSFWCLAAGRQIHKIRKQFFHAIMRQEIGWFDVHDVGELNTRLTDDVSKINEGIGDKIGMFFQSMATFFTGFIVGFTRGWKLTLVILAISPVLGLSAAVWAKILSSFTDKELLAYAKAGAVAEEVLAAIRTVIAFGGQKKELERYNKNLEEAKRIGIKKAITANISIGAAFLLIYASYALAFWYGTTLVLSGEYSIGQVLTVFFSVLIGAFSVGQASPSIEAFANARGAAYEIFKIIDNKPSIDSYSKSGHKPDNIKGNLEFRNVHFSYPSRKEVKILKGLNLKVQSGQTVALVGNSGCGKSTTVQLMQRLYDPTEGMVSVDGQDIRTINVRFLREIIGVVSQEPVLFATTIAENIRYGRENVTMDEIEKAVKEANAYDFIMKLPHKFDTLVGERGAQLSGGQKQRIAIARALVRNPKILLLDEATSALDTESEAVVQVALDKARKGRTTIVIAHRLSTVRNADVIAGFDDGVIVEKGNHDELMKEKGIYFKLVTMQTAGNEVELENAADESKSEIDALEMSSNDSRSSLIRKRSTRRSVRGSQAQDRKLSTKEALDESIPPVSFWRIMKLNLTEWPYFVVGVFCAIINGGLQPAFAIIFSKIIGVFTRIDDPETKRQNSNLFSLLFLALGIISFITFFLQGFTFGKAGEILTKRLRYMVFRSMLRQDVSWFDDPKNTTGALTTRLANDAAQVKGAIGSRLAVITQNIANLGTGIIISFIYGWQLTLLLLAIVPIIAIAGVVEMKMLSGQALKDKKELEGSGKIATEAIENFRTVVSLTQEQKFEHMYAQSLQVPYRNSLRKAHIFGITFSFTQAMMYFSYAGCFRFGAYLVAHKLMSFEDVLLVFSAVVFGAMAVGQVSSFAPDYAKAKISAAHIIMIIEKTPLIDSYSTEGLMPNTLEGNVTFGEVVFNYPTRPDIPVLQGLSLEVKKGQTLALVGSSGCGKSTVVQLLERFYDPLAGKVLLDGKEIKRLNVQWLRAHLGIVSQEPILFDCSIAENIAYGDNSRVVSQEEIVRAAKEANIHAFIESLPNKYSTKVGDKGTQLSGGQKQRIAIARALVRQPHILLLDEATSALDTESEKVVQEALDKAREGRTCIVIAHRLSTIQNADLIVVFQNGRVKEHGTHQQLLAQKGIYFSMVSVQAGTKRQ
assay.overview: MDR1-MDCK permeability and efflux
Type: in vitro ADME
experimental.conditions: dog, MDCK-MDR1, pH 7.4, 5 μM, 120 minutes; read-out: Papp A-to-B, AVG
Known Papp A→B at 120 min, 5 μM of a selection of molecules

>  <molecule>
COc1cc(Cn2nnc3c2CCc2c-3cc(Cn3ccnc3C)cc2C2CC2)ccc1F

>  <property.label>
Papp A→B at 120 min, 5 μM

>  <result>
0.113 ×10⁻⁶ cm/s

$$$$

GET /values?readout=Papp A→B at 120 min, 5 μM&system=P-glycoprotein (MDR1) (Homo sapiens, UniProt P08183)&item= COc1cc(CN2CCc3c(cc(Cn4ccn(C)c4=N)cc3-c3ccc(F)cc3C)C2=O)cc(OC)c1 [C16, reference compound]
0.715 ×10⁻⁶ cm/s

###

assay.overview: Microsomal intrinsic clearance, rat
Format: in vitro ADME
experimental.conditions: pooled liver microsomes; rat microsomes
property.label: CLint scaled at 1 µM (mL/min/kg)
Return type: number; implicit unit mL/min/kg.

>  <compound>
COc1cc(Cn2nnc3c2CCc2c(-c4cn(C)nc4C(F)(F)F)cc(Cn4ccnc4C)cc2-3)cc(OC)c1 [C3TD078]

>  <CLint scaled at 1 µM / mL/min/kg>
316

$$$$

Give the measured CLint scaled at 1 µM of COc1cc(Cn2nnc3c2CCc2c(-c4ccc(F)cc4C)cc(Cn4ccn(C)c4=N)cc2-3)cc(OC)c1 [C16-TZ] .
12.3

What about this compound? COc1cc(Cn2nnc3c2CCc2c-3cc(Cn3ccnc3C)cc2C2CC2)ccc1F [C3TD343]
378
